target: recombinant PRL-3 (Homo sapiens, UniProt O75365); construct: 6xHis (N, cleaved yes); made in house; host or cells: E. coli One Shot BL21 Star; assay: In vitro phosphatase assay (DiFMUP hydrolysis), PRL-3; type: biochemical; conditions: FDA-approved drug screen; compared to DMSO; note: test concentration or dose not given here
Sequence (O75365 whole entry): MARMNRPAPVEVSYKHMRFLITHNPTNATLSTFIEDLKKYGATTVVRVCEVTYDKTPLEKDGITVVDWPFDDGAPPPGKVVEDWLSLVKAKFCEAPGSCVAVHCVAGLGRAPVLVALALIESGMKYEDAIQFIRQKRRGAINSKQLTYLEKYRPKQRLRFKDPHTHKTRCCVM
Known % Phosphatase Activity (compared to DMSO) PRL-3 of a selection of compounds
Expressed in %, but write only the number.

>  <compound>
COc1ccc([C@]2(C#N)CC[C@@H](C(=O)O)CC2)cc1OC1CCCC1

>  <reading>
88

$$$$
>  <compound>
Nc1ccn([C@@H]2O[C@H](CO)[C@@H](O)[C@@H]2O)c(=O)n1

>  <reading>
91

$$$$
>  <compound>
O=C(/C=C\n1cnc(-c2cc(C(F)(F)F)cc(C(F)(F)F)c2)n1)NNc1cnccn1

>  <reading>
97

$$$$
>  <compound>
COC(=O)C1=C(C)NC(C)=C(C(=O)OCCN2CCN(C(c3ccccc3)c3ccccc3)CC2)C1c1cccc([N+](=O)[O-])c1 (stereo not shown)

>  <reading>
77

$$$$
>  <compound>
OCc1ccccc1

>  <reading>
82

$$$$
>  <compound>
CCC1(c2ccc(N)cc2)CCC(=O)NC1=O (stereo not shown) [Aminoglutethimide]

>  <reading>
77

$$$$

Record CCCNS(=O)(=O)Nc1ncnc(OCCOc2ncc(Br)cn2)c1-c1ccc(Br)cc1 , field % Phosphatase Activity (compared to DMSO) PRL-3: 85

Cited source for all entries: paper PMC8119466
